Molecular target: H1 histaminergic receptor (Homo sapiens, UniProt P35367)
Sequence (P35367 whole entry): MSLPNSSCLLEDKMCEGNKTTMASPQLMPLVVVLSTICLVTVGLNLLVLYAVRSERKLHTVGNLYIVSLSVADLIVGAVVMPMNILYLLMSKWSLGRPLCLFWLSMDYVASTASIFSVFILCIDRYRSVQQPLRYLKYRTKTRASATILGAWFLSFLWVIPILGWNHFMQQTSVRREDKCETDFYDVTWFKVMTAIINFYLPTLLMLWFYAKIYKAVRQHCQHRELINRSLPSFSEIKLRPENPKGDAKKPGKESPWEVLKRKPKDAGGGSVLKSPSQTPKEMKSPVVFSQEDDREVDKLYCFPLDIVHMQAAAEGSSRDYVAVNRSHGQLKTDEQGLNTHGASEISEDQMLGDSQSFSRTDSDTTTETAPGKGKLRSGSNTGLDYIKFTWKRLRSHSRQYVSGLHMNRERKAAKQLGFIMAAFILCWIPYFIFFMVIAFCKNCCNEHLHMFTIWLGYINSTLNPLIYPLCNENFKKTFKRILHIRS
Assay: PDSP radioligand binding, H1
Conditions: read-out: % inhibition at 10 µM; single concentration 10 µM
value.type: inhibition at 10 µM (%)
Write the answer as a number in %, unit excluded.

[[record]]
query_smiles = "CNC(=O)[C@@]12C[C@@H]1[C@@H](n1cnc3c(NCc4cccc(Cl)c4)nc(C#Cc4ccccc4Cl)nc31)[C@H](O)[C@@H]2O"
experimental_system = "H1 histaminergic receptor (Homo sapiens, UniProt P35367)"
reported_value = 21

[[record]]
query_smiles = "CNC(=O)[C@@]12C[C@@H]1[C@@H](n1cnc3c(NCc4cccc(Cl)c4)nc(Cl)nc31)[C@H](O)[C@@H]2O"
experimental_system = "H1 histaminergic receptor (Homo sapiens, UniProt P35367)"
reported_value = 6

[[record]]
query_smiles = "O[C@@H]1[C@H](O)[C@@H]2C[C@@H]2[C@H]1n1cnc2c(NC(C3CC3)C3CC3)nc(Cl)nc21"
experimental_system = "H1 histaminergic receptor (Homo sapiens, UniProt P35367)"
reported_value = 0

[[record]]
query_smiles = "Fc1ccc(C#Cc2nc(NCc3cccc(Cl)c3)c3nc[nH]c3n2)cc1F"
experimental_system = "H1 histaminergic receptor (Homo sapiens, UniProt P35367)"
reported_value = 1

[[record]]
query_smiles = "Clc1cccc(CNc2nc(Cl)nc3[nH]cnc23)c1"
experimental_system = "H1 histaminergic receptor (Homo sapiens, UniProt P35367)"
reported_value = 4


Read the next record carefully.
Task item: Which measured inhibition at 10 µM belongs to O[C@@H]1[C@H](O)[C@@H]2C[C@@H]2[C@H]1n1cnc2c(NCc3cccc(Cl)c3)ncnc21 , tested on H1 histaminergic receptor (Homo sapiens, UniProt P35367)?
Reply: 64

###

Each entry below carries its recorded inhibition at 10 µM.
Target: 5HT1D serotonergic receptor (Homo sapiens)
Sequence (P28221 whole entry): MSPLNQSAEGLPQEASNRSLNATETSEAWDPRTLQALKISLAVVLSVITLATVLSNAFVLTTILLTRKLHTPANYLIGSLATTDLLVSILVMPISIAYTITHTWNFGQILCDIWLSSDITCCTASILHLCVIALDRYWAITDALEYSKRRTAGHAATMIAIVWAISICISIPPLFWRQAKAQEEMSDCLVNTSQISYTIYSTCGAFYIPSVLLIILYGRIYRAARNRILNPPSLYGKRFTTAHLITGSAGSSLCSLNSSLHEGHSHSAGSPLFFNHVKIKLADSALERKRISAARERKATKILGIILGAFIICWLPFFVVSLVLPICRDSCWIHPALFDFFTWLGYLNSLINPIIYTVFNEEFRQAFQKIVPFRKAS
Experiment: PDSP radioligand binding, 5HT1D
Conditions: read-out: % inhibition at 10 µM; single concentration 10 µM
Write the answer as a number in %, unit excluded.

Worked examples follow.
[[record]]
query_smiles = "CNC(=O)[C@@]12C[C@@H]1[C@@H](n1cnc3c(NCc4cccc(Cl)c4)nc(C#Cc4ccccc4Cl)nc31)[C@H](O)[C@@H]2O"
unit_name = "%"
reported_value = 10

[[record]]
query_smiles = "CNC(=O)[C@@]12C[C@@H]1[C@@H](n1cnc3c(NCc4cccc(Cl)c4)nc(Cl)nc31)[C@H](O)[C@@H]2O"
unit_name = "%"
reported_value = 31

[[record]]
query_smiles = "CNC(=O)[C@@]12C[C@@H]1[C@@H](n1cnc3c(NCc4cccc(Cl)c4)nc(C#Cc4ccc(F)cc4)nc31)[C@H](O)[C@@H]2O"
unit_name = "%"
reported_value = 21

[[record]]
query_smiles = "Clc1cccc(CNc2nc(Cl)nc3[nH]cnc23)c1"
unit_name = "%"
reported_value = 14

[[record]]
query_smiles = "CNC(=O)[C@@]12C[C@@H]1[C@@H](n1cnc3c(NC)nc(C#Cc4ccc(F)c(F)c4)nc31)[C@H](O)[C@@H]2O"
unit_name = "%"
reported_value = 13

[[record]]
query_smiles = "O[C@@H]1[C@H](O)[C@@H]2C[C@@H]2[C@H]1n1cnc2c(NC(C3CC3)C3CC3)nc(Cl)nc21"
unit_name = "%"
reported_value = 18


Task item: Any idea what inhibition at 10 µM was measured for O[C@@H]1[C@H](O)[C@@H]2C[C@@H]2[C@H]1n1cnc2c(NCc3cccc(Cl)c3)nc(C#Cc3ccc(F)c(F)c3)nc21 ?
Reply: 12

Task item: // repeat for O[C@@H]1[C@H](O)[C@@H]2C[C@@H]2[C@H]1n1cnc2c(NCc3cccc(Cl)c3)ncnc21 and report
Reply: 4

Task item: // repeat for Fc1ccc(C#Cc2nc(NCc3cccc(Cl)c3)c3nc[nH]c3n2)cc1F and report
Reply: 26
